Experiment: small-molecule microarray binders of probe aXIP, primary screen, biochemical, NeuroSMM set, 635/667 nm fluorescence (AID 1119);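 note: probe is the protein aXip251-270 applied at 1 µg/mL to compound-printed slides; binding of probe to printed compounds measured as 667 nm fluorescence plus signal to noise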
Settings: higher = more signal, called active from +8 up or from −8 down
Kindly note that classification relies on composite Z-score with these boundaries: c1 = under -0.2, c2 = from -0.2 up to 0.3, c3 = 0.3 and over

# Molecule, Label Value
rows = [
    ("COCC1=C2[C@@H](CCc3ccccc3)OB(O)C[C@@H]2[C@@H]2C(=O)C=CC(=O)[C@@H]2C1", "c1"),
    ("CC(C)(C)N1CC=CC23O[C@@H]4C=CCOC(=O)[C@@H]4[C@H]2C(=O)N(CCCCCCO)[C@@H]3C1=O (some centres not stated)", "c3"),
    ("COc1ccc([Si](C)(C)[C@H]2[C@H](CCO)O[C@@]3(C(=O)N(Cc4cccc(N5C(=O)COc6ccccc65)c4)c4ccccc43)[C@@H]2C)cc1", "c2"),
    ("C=C(/C(=C/C[C@@H](OC(C)=O)c1cccc(OCCO)c1)c1cc(C(=O)OC)ccc1OC)C(C)C", "c2"),
    ("[N-]=[N+]=NCc1ccccc1C[C@]1(C(N)=O)N=C(c2ccc(OCCCO)cc2)O[C@H]1c1ccccc1", "c1"),
    ("COc1ccc([Si](C)(C)[C@@H]2[C@@H](CC(=O)N3Cc4ccccc4C[C@H]3CO)O[C@]3(C(=O)N(Cc4cccc(N5C(=O)c6cccc7cccc5c67)c4)c4ccccc43)[C@H]2C)cc1", "c2"),
    ("COc1ccc(CCN2C(=O)[C@@]3(Cc4ccccc42)c2ccccc2C(=O)N(Cc2ccccc2OC)[C@H]3c2ccc(CO)cc2)cc1", "c2"),
    ("C#CCN([C@@H](Cc1ccc(O)cc1)C(=O)OC)[C@@H](/C=C/C1CC1)[C@H](O)Cc1ccccc1", "c2"),
    ("Cc1ccc(S[C@]2(C(=O)NCC(F)(F)F)CC(=O)N(Cc3ccccc3)[C@@H]2c2ccc(CO)cc2I)cc1", "c2"),
    ("CCOC(=O)C1=CC[C@@H](c2cccc(Cl)c2)N(S(=O)(=O)c2ccc(C)cc2)C1", "c1"),
    ("C=CCC(OC(C)=O)[C@@H]1[C@@H](N(Cc2ccc(-c3cccc(C(F)(F)F)c3)o2)C(=O)c2ccc(-c3ccccc3)cc2)c2cc(OCCCO)ccc2N1C(=O)c1ccc2ccccc2n1 (some centres not stated)", "c1"),
    ("COc1ccc([Si](C)(C)[C@@H]2[C@@H](CC(=O)N(CCO)Cc3ccccc3)O[C@]3(C(=O)N(Cc4cccc(N5CCOC5=O)c4)c4ccccc43)[C@H]2C)cc1", "c3"),
    ("COc1cc2c(cc1O)C(C)N(Cc1ccc([N+](=O)[O-])o1)CC2 (configuration not stated)", "c2"),
    ("C=C(/C(=C/C[C@H](OC(=O)c1ccncc1)c1ccc(CO)o1)c1cc(C(=O)OC)ccc1OC)C(C)C", "c1"),
    ("CC(C)(C)OC(=O)CC[C@]1(C(=O)NCc2ccccc2)N=C(c2ccc(OCCCO)cc2)O[C@H]1c1ccccc1CN=[N+]=[N-]", "c1"),
    ("CC(c1ccccc1)C(O)C1C=CC2C(=O)N(c3ccccc3)C(=O)C2N1Nc1ccc([N+](=O)[O-])cc1 (configuration not stated)", "c2"),
    ("C=CCNC(=O)[C@H]1[C@@H]2C(=O)O[C@@H](c3ccccc3)[C@@H](c3ccccc3)N2[C@@H](c2ccc(O)cc2)[C@]12C(=O)N(C(=O)OCCOC)c1ccccc12", "c2"),
    ("CCOC(=O)c1ccc(NC(=O)O[C@H]2[C@H](OC(=O)Nc3ccc4c(c3)OCO4)[C@@H](OC(=O)Nc3ccc4c(c3)OCO4)[C@@H](OC)O[C@@H]2CO)cc1", "c3"),
    ("CCCCCCCCCCC(O)C1C=CC2C(=O)N(C)C(=O)C2N1Nc1ccc([N+](=O)[O-])cc1[N+](=O)[O-] (configuration not stated)", "c3"),
    ("COCCCNC(=O)[C@@]1(Sc2ccc(C)cc2)CC(=O)N(C2CCCCC2)[C@@H]1c1ccc(CO)cc1", "c1"),
    ("[N-]=[N+]=NCc1ccccc1C[C@@]1(C(=O)NCc2ccccc2)N=C(c2ccc(OCCCO)cc2)O[C@@H]1c1ccccc1N=[N+]=[N-]", "c2"),
    ("O[C@@H](Cc1ccccc1)[C@@H](/C=C/C1CC1)N(CC#Cc1ccccc1)Cc1cccc(Cl)c1", "c3"),
    ("O=C(CS)NCCCCCNC(=O)[C@@H]1C[C@@H]2C(=O)N3CCC[C@H]3C(=O)N2[C@@H]1c1cccc(OCCO)c1", "c3"),
    ("CCCNC(=O)[C@@H]1c2ccccc2C(=O)N(C(C)C)[C@H]1c1ccc(CO)cc1", "c2"),
    ("C=CCOC(=O)[C@H]1[C@@H]2C(=O)O[C@@H](c3ccccc3)[C@@H](c3ccccc3)N2[C@@H](c2ccc(OCCOC(=O)[C@@H]3C[C@@H]4C(=O)N[C@@H](CCCCN(C)C)C(=O)N4[C@@H]3c3ccc(O)cc3)cc2)[C@]12C(=O)Nc1ccccc12", "c3"),
    ("COCCOC(=O)N1C(=O)[C@@]2(c3cc(C#CC4=CCCCC4)ccc31)[C@H](c1ccc(O)cc1)N1[C@H](c3ccccc3)[C@H](c3ccccc3)OC(=O)[C@H]1[C@@H]2C(=O)N1CCN(c2ncccn2)CC1", "c1"),
]

###

Experiment: Plasmodium falciparum growth inhibition, primary screen, strain 3D7, DAPI fluorescence, 100 nL (AID 1184);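 note: parasites grown inside human red blood cells in medium with human serum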
Settings: P. falciparum 3D7 growth, 3 d, higher = more signal

# Compound, z-score
measured = [
    ("O=C1C=C(c2ccccc2)C(=O)c2ccc([C@H]3Oc4ccccc4S(=O)(=O)N4CCC[C@@H]34)cc21", -3.17),
    ("C[N+](C)(C)CCCCCCNC(=O)[C@H]1C[C@H]2C(=O)NCC(=O)N2[C@H]1c1ccc(O)cc1", 0.089),
    ("O=C1O[C@@H](c2ccccc2)[C@@H](c2ccccc2)N2[C@@H](c3ccc(O)cc3)[C@]3(C(=O)Nc4ccc(C#CC5=CCCCC5)cc43)[C@@H](C(=O)NC[C@H](O)c3ccccc3)[C@H]12", -0.369),
    ("COC(=O)[C@@]1(Cc2ccc(OC)cc2)[C@H]2c3cc(C(=O)N4CCCC4)n(Cc4cccc5ccccc45)c3C[C@H]2CN1C(=O)c1ccccc1", -1.58),
    ("C=CCC(OC(C)=O)[C@@H]1[C@@H](N(Cc2cccc3ccccc23)C(=O)Cc2ccc(OC)cc2)c2cc(OCCCO)ccc2N1C(=O)c1ccc2ccccc2n1 (stereo partly specified)", -2.54),
    ("C=CCOC(=O)[C@H]1[C@@H]2C(=O)O[C@@H](c3ccccc3)[C@@H](c3ccccc3)N2[C@@H](c2ccc(OCCOC(=O)[C@@H]3C[C@@H]4C(=O)N[C@@H](CCCCNC(C)=O)C(=O)N4[C@@H]3c3ccc(O)cc3)cc2)[C@]12C(=O)Nc1ccc(I)cc12", -1.96),
]

###

Test: binders of probe aFSTL3 on microarray, primary screen, stem cell growth factor project, biochemical, small-molecule microarray, fluorescence 635/667 (AID 1064);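 note: measures binding of the biotinylated anti-FSTL3 antibody to printed compounds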
Settings: higher = more signal

# Compound, composite z-score
records = [
    ("[N-]=[N+]=NCc1ccccc1C[C@@]1(C(=O)N2CCOCC2)N=C(c2ccc(OCCCO)cc2)O[C@@H]1c1ccccc1", 0.458),
    ("C=CCNC(=O)[C@H]1[C@@H]2C(=O)O[C@@H](c3ccccc3)[C@@H](c3ccccc3)N2[C@@H](c2ccc(O)cc2)[C@]12C(=O)N(C(=O)OCCOC)c1ccccc12", -0.548),
    ("O=C1NC(=O)C2C1C=CC(C(O)c1cccc3ccccc13)N2Nc1ccc(Cl)cc1Cl (stereo not drawn)", 0.475),
    ("CC(C)C(=C=CC[C@H](O)c1ccc(OCCO)cc1)C[C@H](O)c1ccccn1", -0.331),
    ("Cc1ccc(S[C@]2(C(=O)NCC(F)(F)F)CC(=O)N(Cc3ccccc3)[C@@H]2c2ccc(CO)cc2I)cc1", 0.512),
    ("COC(=O)[C@@]1(Cc2ccc(OC)cc2)[C@@H]2C(=CC(=O)[C@H]2CC(=O)C(=O)N(C)C)CN1C(=O)c1ccccc1", 0.928),
    ("CCOC(=O)C1CCCCN1 (stereo not drawn)", 0.267),
    ("CN(C)C(=O)[C@@]1(CCS(=O)(=O)c2ccccc2)N=C(c2ccc(OCCCO)cc2)O[C@H]1c1ccccc1", -0.0356),
]

###

composite z-score for assorted molecules
Assay: binders of probe aFSTL3 on microarray, primary screen, stem cell growth factor project, biochemical, small-molecule microarray, fluorescence 635/667 (AID 1064);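 note: measures binding of the biotinylated anti-FSTL3 antibody to printed compounds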
Details: higher = more signal
Assay Endpoint: composite z-score

# Molecule, Result
rows = [
    ("C[C@H]1NC(=O)[C@@]23C(=O)N[C@@H](Cc4ccccc4)C2[C@H](C)[C@@]2(C)O[C@H]2C3/C=C/C/C=C\\CNC(=O)[C@H](Cc2ccccc2)NC1=O (stereo partly specified)", -0.536),
    ("O=C(NCC(F)(F)F)[C@@H]1c2ccccc2C(=O)N(Cc2ccc(OC(F)(F)F)cc2)[C@H]1c1ccc(CO)cc1", -0.0966),
    ("COc1ccc([Si](C)(C)[C@@H]2[C@@H](CC(=O)N3Cc4ccccc4C[C@H]3CO)O[C@]3(C(=O)N(Cc4cccc(N5C(=O)c6cccc7cccc5c67)c4)c4ccccc43)[C@H]2C)cc1", -0.345),
    ("CN1C(=O)C2C=CC(C(O)c3ccccn3)N(N(c3ccccc3)c3ccccc3)C2C1=O (stereo unspecified)", 0.733),
    ("C=CCOC(=O)[C@H]1[C@@H]2C(=O)O[C@@H](c3ccccc3)[C@@H](c3ccccc3)N2[C@@H](c2ccc(OCCOC(=O)[C@@H]3C[C@@H]4C(=O)N[C@@H](CCCCN(C)C)C(=O)N4[C@@H]3c3ccc(O)cc3)cc2)[C@]12C(=O)Nc1ccccc12", -0.0613),
    ("C=CCOC(=O)[C@H]1[C@@H]2C(=O)O[C@@H](c3ccccc3)[C@@H](c3ccccc3)N2[C@@H](c2ccc(OCCOC(=O)[C@H]3C[C@H]4C(=O)N[C@@H](CCCCNC(C)=O)C(=O)N4[C@H]3c3ccc(O)cc3)cc2)[C@]12C(=O)Nc1ccccc12", -0.0493),
]
